# credit: paper PMC12325182

target.or.test.system: BTK (Homo sapiens)
Sequence (Q06187 whole entry): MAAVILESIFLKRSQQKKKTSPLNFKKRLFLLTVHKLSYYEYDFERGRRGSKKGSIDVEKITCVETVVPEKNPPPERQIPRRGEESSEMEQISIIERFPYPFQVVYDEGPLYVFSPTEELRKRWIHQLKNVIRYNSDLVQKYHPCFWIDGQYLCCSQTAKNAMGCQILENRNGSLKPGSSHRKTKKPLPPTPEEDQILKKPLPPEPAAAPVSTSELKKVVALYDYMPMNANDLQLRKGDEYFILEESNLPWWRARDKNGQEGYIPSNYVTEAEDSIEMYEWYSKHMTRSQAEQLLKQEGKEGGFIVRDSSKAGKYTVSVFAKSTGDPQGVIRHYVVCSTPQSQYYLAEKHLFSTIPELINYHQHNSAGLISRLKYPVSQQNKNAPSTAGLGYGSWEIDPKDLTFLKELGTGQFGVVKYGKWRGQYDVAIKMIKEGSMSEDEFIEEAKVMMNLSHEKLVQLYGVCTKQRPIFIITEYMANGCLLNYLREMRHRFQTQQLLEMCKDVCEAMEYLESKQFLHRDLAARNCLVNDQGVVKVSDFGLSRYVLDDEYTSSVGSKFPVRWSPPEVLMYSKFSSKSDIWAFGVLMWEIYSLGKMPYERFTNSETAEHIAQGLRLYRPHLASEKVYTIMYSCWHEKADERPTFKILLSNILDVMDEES
pIC50: −log10 of the molar value.
quantity.kind: pIC50

Quick check: pIC50 of CC1=C(CC(=O)/C=C/c2cccc(CO)c2)C(=O)C=C2C1=CC=C1[C@@]2(C)CC[C@@]2(C)C3C[C@](C)(C(=O)CCc4nc(C(O)C(O)O)c(C)nc4C)CC[C@]3(C)CC[C@]12C (stereo partly shown) ?
< 4.52

---

target.or.test.system: TXK (Homo sapiens, UniProt P42681)
Sequence (P42681 1-527): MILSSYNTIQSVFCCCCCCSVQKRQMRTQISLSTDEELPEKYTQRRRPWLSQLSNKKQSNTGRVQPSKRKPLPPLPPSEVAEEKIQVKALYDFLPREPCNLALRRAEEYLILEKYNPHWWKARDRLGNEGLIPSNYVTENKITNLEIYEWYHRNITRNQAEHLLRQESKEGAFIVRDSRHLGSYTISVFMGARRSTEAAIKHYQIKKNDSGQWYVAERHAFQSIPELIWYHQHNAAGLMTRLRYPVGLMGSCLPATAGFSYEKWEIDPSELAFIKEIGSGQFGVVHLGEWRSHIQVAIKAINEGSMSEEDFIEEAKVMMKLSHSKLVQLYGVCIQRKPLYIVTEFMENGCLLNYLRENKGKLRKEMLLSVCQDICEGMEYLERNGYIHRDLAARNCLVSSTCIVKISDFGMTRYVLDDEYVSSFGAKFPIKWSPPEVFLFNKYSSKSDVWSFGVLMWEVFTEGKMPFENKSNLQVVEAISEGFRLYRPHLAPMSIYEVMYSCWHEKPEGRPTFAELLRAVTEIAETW
quantity.kind: IC50

Quick check: IC50 of CC1=C(CC(=O)/C=C/c2cccc(CO)c2)C(=O)C=C2C1=CC=C1[C@@]2(C)CC[C@@]2(C)C3C[C@](C)(C(=O)CCc4nc(C(O)C(O)O)c(C)nc4C)CC[C@]3(C)CC[C@]12C (stereo partly shown) ?
> 30 µM
